Target: p110δ/p85α (Homo sapiens (Human), UniProt O00329)
Sequence (O00329 whole entry, one chain of several): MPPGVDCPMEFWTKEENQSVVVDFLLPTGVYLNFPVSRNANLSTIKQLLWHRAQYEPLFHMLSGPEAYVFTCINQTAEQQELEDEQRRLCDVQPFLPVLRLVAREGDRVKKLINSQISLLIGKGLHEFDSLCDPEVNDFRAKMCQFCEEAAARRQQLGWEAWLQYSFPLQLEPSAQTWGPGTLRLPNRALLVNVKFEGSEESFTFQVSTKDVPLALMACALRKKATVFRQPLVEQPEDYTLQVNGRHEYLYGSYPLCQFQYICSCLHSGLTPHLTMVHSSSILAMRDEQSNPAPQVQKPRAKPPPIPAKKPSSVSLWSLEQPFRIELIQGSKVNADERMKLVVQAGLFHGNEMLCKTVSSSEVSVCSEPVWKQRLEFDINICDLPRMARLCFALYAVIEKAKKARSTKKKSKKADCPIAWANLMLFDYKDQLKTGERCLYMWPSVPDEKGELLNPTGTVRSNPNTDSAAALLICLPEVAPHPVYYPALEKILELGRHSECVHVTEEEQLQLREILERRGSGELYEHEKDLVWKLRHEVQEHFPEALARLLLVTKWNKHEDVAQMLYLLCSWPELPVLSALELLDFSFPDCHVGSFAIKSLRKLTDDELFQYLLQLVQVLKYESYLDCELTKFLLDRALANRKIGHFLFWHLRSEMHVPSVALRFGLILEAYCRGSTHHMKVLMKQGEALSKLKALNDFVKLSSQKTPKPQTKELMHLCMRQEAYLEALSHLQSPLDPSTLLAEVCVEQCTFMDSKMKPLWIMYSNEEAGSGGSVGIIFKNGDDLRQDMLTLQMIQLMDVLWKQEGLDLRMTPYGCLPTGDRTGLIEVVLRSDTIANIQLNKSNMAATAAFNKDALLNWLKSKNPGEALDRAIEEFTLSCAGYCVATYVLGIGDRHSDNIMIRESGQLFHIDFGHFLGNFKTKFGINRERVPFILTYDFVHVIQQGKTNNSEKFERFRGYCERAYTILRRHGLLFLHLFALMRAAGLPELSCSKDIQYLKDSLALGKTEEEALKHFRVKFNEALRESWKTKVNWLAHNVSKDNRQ
Assay: PI 3-Kinase (human) HTRF assay, p110δ/p85α
Assay type: biochemical
Details: in vitro; read-out: PI3K δ IC50
Form field: IC50 (one value per entry).

Below are worked cases with known answers.
Nc1nc2cc(-c3ccc4ncc(N5CC(C(=O)N6CCN(C7CC7)CC6)C5)nc4c3)ccc2o1: < 1 µM
Nc1nc2cc(-c3ccc4ncn(CCCN5CCCC5)c(=O)c4c3)ccc2o1: < 10 µM
Nc1nc2cc(-c3ccc4ncc(N5CC(N6CCNC(=O)C6)C5)nc4c3)ccc2o1: < 10 µM
Cc1cn(C2CN(c3cnc4ccc(-c5ccc6oc(N)nc6c5)cc4n3)C2)cn1: < 1 µM

With those in mind, consider the next compound.
Q: Would you kindly share the measured IC50 for CC(Oc1nc(-c2ccc3oc(N)nc3c2)cnc1N)C(F)(F)F (centres unmarked) ?
Ans: < 10 µM

----------
Biological target: p110α/p85α (Homo sapiens (Human), UniProt P42336)
Sequence (P42336 whole entry): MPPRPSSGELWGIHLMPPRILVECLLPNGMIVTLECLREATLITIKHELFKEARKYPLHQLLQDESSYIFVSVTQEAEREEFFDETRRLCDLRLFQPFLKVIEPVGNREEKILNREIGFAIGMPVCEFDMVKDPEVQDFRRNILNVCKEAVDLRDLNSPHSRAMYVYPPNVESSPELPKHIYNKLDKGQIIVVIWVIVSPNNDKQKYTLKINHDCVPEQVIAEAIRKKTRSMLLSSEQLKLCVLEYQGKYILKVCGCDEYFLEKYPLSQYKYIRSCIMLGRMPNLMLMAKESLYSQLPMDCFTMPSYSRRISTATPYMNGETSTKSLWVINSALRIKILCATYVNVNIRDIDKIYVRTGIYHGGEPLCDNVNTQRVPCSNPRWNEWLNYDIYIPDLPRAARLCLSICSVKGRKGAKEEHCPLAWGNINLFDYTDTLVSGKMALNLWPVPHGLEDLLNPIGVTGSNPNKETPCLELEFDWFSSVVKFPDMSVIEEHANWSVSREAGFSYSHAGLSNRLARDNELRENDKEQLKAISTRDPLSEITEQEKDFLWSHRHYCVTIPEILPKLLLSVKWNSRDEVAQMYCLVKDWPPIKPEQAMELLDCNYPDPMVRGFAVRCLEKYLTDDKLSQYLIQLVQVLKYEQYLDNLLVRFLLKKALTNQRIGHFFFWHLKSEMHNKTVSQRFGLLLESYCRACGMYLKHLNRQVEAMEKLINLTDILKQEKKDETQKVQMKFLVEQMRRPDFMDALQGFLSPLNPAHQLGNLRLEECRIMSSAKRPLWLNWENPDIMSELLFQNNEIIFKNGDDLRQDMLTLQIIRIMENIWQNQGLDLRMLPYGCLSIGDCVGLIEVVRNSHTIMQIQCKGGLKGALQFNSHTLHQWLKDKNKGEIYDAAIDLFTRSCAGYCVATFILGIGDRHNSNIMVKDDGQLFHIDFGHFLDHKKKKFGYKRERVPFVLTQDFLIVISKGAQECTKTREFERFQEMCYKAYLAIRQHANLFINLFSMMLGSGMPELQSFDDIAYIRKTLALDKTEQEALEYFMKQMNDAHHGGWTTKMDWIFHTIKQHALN
Sequence (P27986 whole entry partner): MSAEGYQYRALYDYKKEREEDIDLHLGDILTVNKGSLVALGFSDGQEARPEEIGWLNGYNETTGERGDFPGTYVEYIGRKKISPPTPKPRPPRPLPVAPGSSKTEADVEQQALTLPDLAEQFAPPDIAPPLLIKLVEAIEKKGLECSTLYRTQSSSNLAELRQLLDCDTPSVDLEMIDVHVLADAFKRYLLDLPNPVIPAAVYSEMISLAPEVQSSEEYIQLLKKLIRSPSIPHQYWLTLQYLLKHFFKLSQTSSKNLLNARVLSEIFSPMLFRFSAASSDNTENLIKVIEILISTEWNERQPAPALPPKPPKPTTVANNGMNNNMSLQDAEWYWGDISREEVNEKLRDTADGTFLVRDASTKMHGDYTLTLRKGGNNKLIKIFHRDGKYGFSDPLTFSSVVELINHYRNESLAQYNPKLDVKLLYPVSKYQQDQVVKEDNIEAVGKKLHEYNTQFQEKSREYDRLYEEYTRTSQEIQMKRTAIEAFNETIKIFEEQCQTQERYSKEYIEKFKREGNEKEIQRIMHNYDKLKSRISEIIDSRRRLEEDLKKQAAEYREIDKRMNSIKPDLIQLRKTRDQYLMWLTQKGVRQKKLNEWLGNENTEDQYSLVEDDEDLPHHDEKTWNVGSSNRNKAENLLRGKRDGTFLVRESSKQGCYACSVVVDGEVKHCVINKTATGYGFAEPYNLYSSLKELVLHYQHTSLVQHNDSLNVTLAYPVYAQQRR
Experiment: PI 3-Kinase (human) HTRF assay, p110α/p85α
Assay type: biochemical
Conditions: in vitro; read-out: PI3K α IC50
Measured IC50, listed per entry.

Sample records with IC50:
CC1CN(C(=O)c2cnc3ccc(-c4ccc5oc(N)nc5c4)cn23)CCO1 (centres unmarked): < 100 nM
C[C@H]1CN(c2cnc3ccc(-c4ccc5nc(N)oc5c4)cc3n2)CCN1: < 1000 nM
CS(=O)(=O)CCN1CCC(NC(=O)c2cnc3ccc(-c4ccc5oc(N)nc5c4)cn23)CC1: < 100 nM
Nc1nc2cc(-c3ccc4ncc(C(=O)N5CC5)n4c3)ccc2o1: < 1000 nM
Nc1nc2cc(-c3ccc4ncc(N5CC(N6CCOCC6)C5)nc4c3)ccc2o1: < 100 nM

Q: Consider the compound shown here: `Nc1nc2cc(-c3ccc4ncc(N5CCNCC5=O)nc4c3)ccc2o1` What is its recorded IC50?
Ans: < 1000 nM

Q: How about `Nc1nc2ccc(-c3ccc4nnc(-c5cccnc5)n4c3)cc2o1` ?
Ans: < 10000 nM

Q: Same for `CN(C)CCn1cnc2ccc(-c3ccc4oc(N)nc4c3)cc2c1=O`
Ans: < 10000 nM

Q: Another compound to look at: `CN1CCN(CCCn2cnc3ccc(-c4ccc5oc(N)nc5c4)cc3c2=O)CC1`
Ans: < 1000 nM

Q: Do the same for `C[C@H](N)C(=O)N1CCN(c2cnc3ccc(-c4ccc5oc(N)nc5c4)cc3n2)CC1` please
Ans: < 100 nM

----------
Listing: pIC50 of selected molecules
Target: p110β/p85α (Homo sapiens (Human), UniProt P42338)
Sequence (P42338 whole entry, one chain of several): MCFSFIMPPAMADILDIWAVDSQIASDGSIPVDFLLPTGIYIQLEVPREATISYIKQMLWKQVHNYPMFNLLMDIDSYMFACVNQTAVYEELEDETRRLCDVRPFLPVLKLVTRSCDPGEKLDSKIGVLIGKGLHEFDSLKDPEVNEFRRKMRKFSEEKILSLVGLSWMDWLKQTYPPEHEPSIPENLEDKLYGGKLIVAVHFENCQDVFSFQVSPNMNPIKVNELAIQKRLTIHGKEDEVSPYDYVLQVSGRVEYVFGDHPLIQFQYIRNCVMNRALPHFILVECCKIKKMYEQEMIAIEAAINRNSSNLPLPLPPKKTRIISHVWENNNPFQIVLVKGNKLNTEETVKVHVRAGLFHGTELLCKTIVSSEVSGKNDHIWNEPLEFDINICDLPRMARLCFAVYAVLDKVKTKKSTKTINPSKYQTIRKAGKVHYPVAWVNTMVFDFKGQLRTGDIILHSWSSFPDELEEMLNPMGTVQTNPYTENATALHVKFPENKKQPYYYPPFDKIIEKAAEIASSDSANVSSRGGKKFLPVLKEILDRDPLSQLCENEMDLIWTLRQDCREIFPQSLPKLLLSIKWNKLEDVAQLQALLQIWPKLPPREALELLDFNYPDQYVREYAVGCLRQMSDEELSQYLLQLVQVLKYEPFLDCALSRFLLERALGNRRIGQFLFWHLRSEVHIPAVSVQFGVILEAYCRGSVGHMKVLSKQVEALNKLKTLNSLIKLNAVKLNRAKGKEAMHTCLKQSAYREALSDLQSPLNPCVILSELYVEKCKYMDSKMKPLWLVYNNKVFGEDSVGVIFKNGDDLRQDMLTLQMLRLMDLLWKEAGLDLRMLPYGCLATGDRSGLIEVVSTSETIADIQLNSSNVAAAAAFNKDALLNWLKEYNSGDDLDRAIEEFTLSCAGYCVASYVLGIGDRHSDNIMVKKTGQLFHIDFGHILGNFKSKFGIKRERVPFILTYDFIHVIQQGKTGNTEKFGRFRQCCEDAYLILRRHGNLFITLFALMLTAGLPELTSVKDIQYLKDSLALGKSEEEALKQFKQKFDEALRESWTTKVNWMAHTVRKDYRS
Experiment: PI 3-Kinase (human) HTRF assay, p110β/p85α
Type: biochemical
Conditions: in vitro; read-out: PI3K β IC50
pIC50: −log10 of the molar value.

Reference set (5 entries):
Nc1nc2cc(-c3ccc4ncc(N5CCN(C(=O)CN6CCCC6)CC5)nc4c3)ccc2o1 [compound 278]: > 6.00
Nc1nc2cc(-c3ccc4ncc(N5CC(N6CCN(CC7CC7)CC6)C5)nc4c3)ccc2o1 [compound 335]: > 5.00
CC(=O)Nc1nc(C)c(-c2ccc3oc(N)nc3c2)s1 [compound 312]: > 5.00
CN1CCC(c2cnc3ccc(-c4ccc5oc(N)nc5c4)cc3n2)CC1 [compound 385]: > 5.00
Cc1nccn1C1CCN(c2cnc3ccc(-c4ccc5oc(N)nc5c4)cc3n2)CC1 [compound 344]: > 5.00

Q: Give the measured pIC50 of Nc1nc2cc(-c3ccc4ncc(N5CC(N6CCOCC6)C5)nc4c3)cc(F)c2o1 [compound 361] .
Ans: > 6.00

Q: Same lookup for Nc1nc2cc(-c3ccc4ncc(C(=O)N5CCOCC5)n4c3)cc(Cl)c2o1 [compound 359] , please.
Ans: > 6.00

Q: Now this one: Nc1nc2cc(-c3ccc4ncc(C(=O)N5CCOCC5)n4c3)cc(F)c2o1 [compound 360]
Ans: > 6.00

Q: Do the same for Nc1nc2cc(-c3ccc4ncc(N5CC(C(=O)N6CCN(C7CC7)CC6)C5)nc4c3)ccc2o1 [compound 276] please
Ans: > 5.00

Q: Now try C[C@H]1CN(c2cnc3ccc(-c4ccc5nc(N)oc5c4)cc3n2)CCN1 [compound 309] .
Ans: > 6.00

Q: Please do the same for COC(=O)N1CCC(n2ncc3c(N4CCOCC4)nc(-c4ccc5oc(N)nc5c4)nc32)CC1 [compound 330] as well.
Ans: > 5.00
